Biological target: CYP2C9 (Homo sapiens)
Sequence (P11712 whole entry): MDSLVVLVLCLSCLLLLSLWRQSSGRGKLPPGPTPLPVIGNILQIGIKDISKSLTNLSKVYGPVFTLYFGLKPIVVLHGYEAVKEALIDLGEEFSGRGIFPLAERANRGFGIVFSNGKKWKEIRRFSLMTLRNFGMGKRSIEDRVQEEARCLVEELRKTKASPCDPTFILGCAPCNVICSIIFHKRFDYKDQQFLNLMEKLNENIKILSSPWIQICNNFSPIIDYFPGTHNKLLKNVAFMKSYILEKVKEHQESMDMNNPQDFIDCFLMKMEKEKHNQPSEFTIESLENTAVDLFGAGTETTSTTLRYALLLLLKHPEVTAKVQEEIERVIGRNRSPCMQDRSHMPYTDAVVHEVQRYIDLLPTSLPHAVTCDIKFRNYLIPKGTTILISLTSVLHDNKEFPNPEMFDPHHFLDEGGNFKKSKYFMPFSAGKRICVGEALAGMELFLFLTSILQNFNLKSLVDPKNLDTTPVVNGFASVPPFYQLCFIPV
Assay: Inhibition of human microsomal CYP2C9 expressed in baculovirus infected BTI-TN-5B1-4 cells at 10 uM incubated for 30 mins by luciferase assay relative to control
Assay type: ADME
Measured inhibition at 0.5 h, 10 µM, listed per entry for reference.
Reported metric: inhibition at 0.5 h, 10 µM

- Smiles: "NC(=S)N/N=C/c1ccco1"
  Target under test: "CYP2C9 (Homo sapiens)"
  Assay result: "-12.2%"
- Smiles: "COc1cccc(OC)c1/C=N/NC(N)=S"
  Target under test: "CYP2C9 (Homo sapiens)"
  Assay result: "-9.43%"
- Smiles: "N/C(S)=N/N=C/c1ccc(Cl)c(Cl)c1"
  Target under test: "CYP2C9 (Homo sapiens)"
  Assay result: "24.3%"
- Smiles: "NC(=S)N/N=C/c1ccc(O)c(O)c1"
  Target under test: "CYP2C9 (Homo sapiens)"
  Assay result: "-7.51%"
- Smiles: "NC(=S)N/N=C/C=C/c1ccccc1"
  Target under test: "CYP2C9 (Homo sapiens)"
  Assay result: "9.11%"
- Smiles: "CSc1ccc(/C=N/NC(N)=S)cc1"
  Target under test: "CYP2C9 (Homo sapiens)"
  Assay result: "12.4%"
- Smiles: "N/C(S)=N/N=C/c1cccc(Br)c1"
  Target under test: "CYP2C9 (Homo sapiens)"
  Assay result: "-7.51%"
- Smiles: "C/C(=N\\NC(N)=S)c1ccc(N)cc1"
  Target under test: "CYP2C9 (Homo sapiens)"
  Assay result: "7.46%"
